The following molecules are shown together with reported activation values.
Target: Tyrosine-protein phosphatase non-receptor type 22 (Homo sapiens)
Test: LYP phosphatase activators, primary screen, biochemical, DiFMUP fluorescence, 2 µM (AID 697)
Settings: recombinant LYP, at 2 µM, stronger effect = higher value, 0 = plate median, 100 = signal doubled
In all, about 96,000 compounds went through this assay and about 100 (0.1%) were called active. The entries come from a sample that favours actives as a whole.
measurementType: activation (%)

molecule | measured
COc1cccc(C(=O)Nc2ccc(NC(=O)c3ccco3)cn2)c1 | 6.7
CC(=O)c1cc2c(cc1NC(=O)CN1CCCCCC1)OCO2 | -5.9
COc1cc2c(cc1OC)C(C(C)C)=NC(C)(C)C2 | 12.3
FC(F)(F)c1nc2ccccc2nc1N/N=C/c1ccc(Cl)cc1 | 5.5
Cc1cc(-c2cccs2)nc(-n2cccc2)n1 | 3.4
O=C(CCNS(=O)(=O)c1ccccc1C(F)(F)F)NCc1ccc2c(c1)OCO2 | 13.9
OC(COc1ccc2ccccc2c1)Cn1cncn1 (centres undefined) | -5.7
CCCc1nc2ccccc2c(C(=O)OCC(=O)c2ccc3c(c2)NC(=O)CO3)c1CC | 3.9
CC1=CC(C)(C)NC(=S)N1c1ccccc1 | -7.5
CCCCCOC(=O)c1ccc(N2C(=O)C3C4C=CC(C4)C3C2=O)cc1 (centres undefined) | 12.4
O=C(COc1ccc(S(=O)(=O)NCc2ccccc2)cc1)N1CCOCC1 | 2.4
CCN(CC)C(=O)CSc1nc2ccccc2o1 | 8.6
CC(C)C(=O)NC(NC(=S)NC1CCS(=O)(=O)C1)C(Cl)(Cl)Cl (centres undefined) | -11.6
O=C(CN1CCN(c2ccc(Cl)cc2)CC1)N1CCCC1 | -12
COc1ccc(CNc2ccc3c(c2)CCC3)cc1OC | -10.3
CCCCNS(=O)(=O)c1ccc(S(=O)(=O)n2cnc3ccccc32)cc1 | -10.5
Cc1cc(C)c2c(-n3cccc3)c(C(=O)NNS(=O)(=O)c3ccc(F)cc3)sc2n1 | -0.7
O=C(Cc1ccc2c(c1)CCCC2)Nc1ccccc1Cl | 5.5
COc1ccc(OC)c(-n2nnnc2SCC(=O)Nc2cc(C)ccc2OC)c1 | 2.6
Cc1nn(Cc2ccccc2)c2c1C(c1ccccc1)C(C#N)=C(N)O2 (centres undefined) | -7.2
Cc1ccc2[nH]c3c(=O)n(Cc4ccccn4)cnc3c2c1 | -0.9
CCSc1nnc(-c2cc3c(s2)-c2ccccc2CC3)o1 | -3.7
CCn1c(/C=C/c2ccc([N+](=O)[O-])o2)nc2ccccc2c1=O | -10.9
CN(C)C(CNC(=O)CCCOc1ccccc1)c1ccco1 (centres undefined) | -1
CN(C)c1ccc(/C=C2\NC(=S)N(Cc3ccccc3)C2=O)cc1 | -19.7
CC1(C)OC(=O)N2CCc3ccccc3C21C (centres undefined) | -7.1
CC(C)NC(=O)c1ccccc1S(=O)c1ccccc1C#N (centres undefined) | 4
COCCn1c(=S)[nH]c2cc(C(=O)NCCc3ccc(OC)c(OC)c3)ccc2c1=O | -10.7
CCOc1ccc(NC(=O)C2CC(=O)N=C(N)S2)cc1 (centres undefined) | -0.7
O=C(Nc1ccc2nc3n(c(=O)c2c1)CCCCC3)c1ccccc1Cl | -2.7
CC1(C)CC(=O)C=C(N2CCCC2)C1 | -1.1
CCCc1nc2oc3c(OCC)ncnc3c2c2c1COC(C)(C)C2 | -1.3
COc1ccc(N(CC(=O)N/N=C/c2cccc3c2OCCO3)S(=O)(=O)c2ccc(NC(C)=O)cc2)cc1 | 7.5
O=C1OC(c2ccc(Cl)cc2)=N/C1=C\c1cccnc1 | 7.7
CS(=O)(=O)N(Cc1ccc(Cl)cc1)c1ccc(C(=O)NCCSCc2ccco2)cc1 | 10.1
COCc1cc(C)nc2sc3c(=O)n(-c4cccc5ccccc45)nnc3c12 | -7.5
CC(C)CNC(=O)CC(c1ccccc1)c1c(O)ccc2ccccc12 (centres undefined) | -3.2
N#Cc1ccsc1NC(=O)CN1CCCCC1 | 5.2
Cc1ccccc1-n1c(C)cc(/C=C2\NC(=O)NC2=O)c1C | 12.1

====

Target: Tyrosine-protein phosphatase non-receptor type 22 (Homo sapiens) (UniProt Q9Y2R2)
Sequence (Q9Y2R2 whole entry, looked up): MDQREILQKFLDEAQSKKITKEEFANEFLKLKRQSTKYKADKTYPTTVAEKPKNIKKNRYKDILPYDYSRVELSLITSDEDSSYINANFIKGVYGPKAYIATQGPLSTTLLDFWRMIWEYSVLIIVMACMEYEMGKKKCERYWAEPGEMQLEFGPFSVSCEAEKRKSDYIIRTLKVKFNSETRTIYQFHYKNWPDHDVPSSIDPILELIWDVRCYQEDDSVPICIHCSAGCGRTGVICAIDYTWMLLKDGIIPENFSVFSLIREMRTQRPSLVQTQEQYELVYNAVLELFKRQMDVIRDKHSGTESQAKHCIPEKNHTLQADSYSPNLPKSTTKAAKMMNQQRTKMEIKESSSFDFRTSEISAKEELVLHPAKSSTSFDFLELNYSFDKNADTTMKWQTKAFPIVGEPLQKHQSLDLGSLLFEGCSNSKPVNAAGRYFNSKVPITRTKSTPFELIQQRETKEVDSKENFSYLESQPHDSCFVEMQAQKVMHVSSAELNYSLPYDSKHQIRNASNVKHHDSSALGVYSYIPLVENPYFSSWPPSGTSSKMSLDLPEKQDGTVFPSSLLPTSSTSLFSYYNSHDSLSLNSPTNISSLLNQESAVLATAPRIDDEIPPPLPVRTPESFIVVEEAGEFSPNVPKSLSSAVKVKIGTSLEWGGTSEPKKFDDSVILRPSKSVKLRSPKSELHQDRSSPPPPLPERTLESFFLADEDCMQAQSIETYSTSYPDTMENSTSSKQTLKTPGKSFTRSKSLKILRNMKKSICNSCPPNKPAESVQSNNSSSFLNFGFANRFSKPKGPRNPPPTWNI
Assay: LYP phosphatase activators, primary screen, biochemical, DiFMUP fluorescence, 2 µM (AID 697)
Conditions: recombinant LYP, at 2 µM, stronger effect = higher value, 0 = plate median, 100 = signal doubled
Out of some 96,000 compounds screened, about 100 (0.1%) were called active. This excerpt belongs to a sample that is enriched for actives.

compound | activation (%)
O=C(Nc1ccccc1)OCc1cn(-c2ccc(Cl)cc2)nn1 | -1.5
Cc1noc(C)c1C(=O)N1CCOCC1 | 33
COc1ccc2c(c1)cc1n2CCN=C1NN | 0.1
Cn1ncc2c(Nc3cccc4ccccc34)ncnc21 | -5
COc1ccc(OC(C)C(=O)Nc2cccnc2)cc1 (stereo not given) | 6.9
CCN(CC)CCn1c2ccc(Cl)cc2c2nc(C)sc21 | -0.1
COc1ccc(N2CCN(C(=O)CNC(=O)c3ccc(C(C)(C)C)cc3)CC2)cc1 | -8.3
COC(=O)[C@@H](NC(=O)Nc1cc(Cl)ccc1C)C(C)C | 8.5
CCN(CC)CCNC(=O)CCCCCn1c(=O)[nH]c2cc(C(=O)OC)ccc2c1=O | 6.8
Cc1noc(NS(=O)(=O)c2ccc(N/C=C/C(=O)c3ccccc3)cc2)c1C | 1.5

====

Target: Tyrosine-protein phosphatase non-receptor type 22 (Homo sapiens)
Assay: LYP phosphatase activators, primary screen, biochemical, DiFMUP fluorescence, 2 µM (AID 697)
Conditions: recombinant LYP, at 2 µM, stronger effect = higher value, 0 = plate median, 100 = signal doubled
In all, about 96,000 compounds went through this assay and about 100 (0.1%) were called active. The list comes from a sample in which actives are over-represented; it also holds close analogues and randomly drawn compounds.

compound | targetSystem | activation, %
C=CCn1c(Oc2ccc(C(=O)OC)cc2)nc2c1c(=O)n(C)c(=O)n2C | Tyrosine-protein phosphatase non-receptor type 22 (Homo sapiens) | -3.9
Cc1ccc(C(=O)Nc2ccccc2C(=O)NC2CCCCC2)cc1S(=O)(=O)N1CCOCC1 | Tyrosine-protein phosphatase non-receptor type 22 (Homo sapiens) | -0.7
CCc1ccc(C(=O)CSc2nnc(C)c(=O)[nH]2)cc1 | Tyrosine-protein phosphatase non-receptor type 22 (Homo sapiens) | -2.7
O=C(COc1ccc2c(C(F)(F)F)cc(=O)oc2c1)Nc1ccc2c(c1)OCCO2 | Tyrosine-protein phosphatase non-receptor type 22 (Homo sapiens) | -12.8
CCOC(=O)N1CCN(Cc2nc(N)nc(Nc3ccc(C)cc3)n2)CC1 | Tyrosine-protein phosphatase non-receptor type 22 (Homo sapiens) | 7.7
Cc1noc(C)c1CSCC(=O)Nc1nc2ccc(Oc3ccccc3)cc2s1 | Tyrosine-protein phosphatase non-receptor type 22 (Homo sapiens) | 1.8
O=C(CCCn1c(SCC(=O)c2ccccc2)nc2ccccc2c1=O)NCC1CCCO1 (stereo not given) | Tyrosine-protein phosphatase non-receptor type 22 (Homo sapiens) | -4.2
O=C(NC1CCCCC1)c1ccc(CNc2c(N3CCOCC3)c(=O)c2=O)cc1 | Tyrosine-protein phosphatase non-receptor type 22 (Homo sapiens) | 10.2
O=C(Cn1c(-c2cscn2)nc2ccccc21)Nc1ccc(Cl)cc1 | Tyrosine-protein phosphatase non-receptor type 22 (Homo sapiens) | 3
Clc1ccc(-n2nnnc2-c2cnc(-c3ccccn3)nc2-c2cccs2)cc1 | Tyrosine-protein phosphatase non-receptor type 22 (Homo sapiens) | 3.1
O=C(Nc1ccc(Br)cc1)C1CCC(=O)N1Cc1ccccc1Cl (stereo not given) | Tyrosine-protein phosphatase non-receptor type 22 (Homo sapiens) | -2.1
CC1=NN(/C(=N\c2nnc(C)s2)Nc2ccccc2)[C@H](c2ccc(C)cc2)S1 | Tyrosine-protein phosphatase non-receptor type 22 (Homo sapiens) | -6.4
Cc1cc(C)cc(N(CC(=O)N2CC=C(c3ccccc3)CC2)S(=O)(=O)c2c(C)noc2C)c1 | Tyrosine-protein phosphatase non-receptor type 22 (Homo sapiens) | -2.1
Cc1cc(C)c(S(=O)(=O)N2C=CC(C(F)(F)F)=NCC2)c(C)c1 | Tyrosine-protein phosphatase non-receptor type 22 (Homo sapiens) | 16.2
CCCCCc1ccc(-c2ccc(C(=O)O)cc2)nc1 | Tyrosine-protein phosphatase non-receptor type 22 (Homo sapiens) | -8.9
COc1cc(/C=C2/C(=O)ON=C2C)ccc1OCc1ccccc1F | Tyrosine-protein phosphatase non-receptor type 22 (Homo sapiens) | 6.2
Cc1c(Nc2cc(N3CCCC(C)C3)c3nonc3c2[N+](=O)[O-])c(=O)n(-c2ccccc2)n1C (stereo not given) | Tyrosine-protein phosphatase non-receptor type 22 (Homo sapiens) | 3.1
Cc1ccc(S(=O)(=O)NC(=O)COc2ccccc2C)cc1 | Tyrosine-protein phosphatase non-receptor type 22 (Homo sapiens) | -2.9
O=C(Nc1cc2ccccc2oc1=O)C1CCCCC1 | Tyrosine-protein phosphatase non-receptor type 22 (Homo sapiens) | -7.9
c1ccc(-c2nccc(-c3ccc(-n4cnc5ccccc54)cc3)n2)nc1 | Tyrosine-protein phosphatase non-receptor type 22 (Homo sapiens) | -36.4
O=C(NC1CCC(O)CC1)c1ccc(S(=O)(=O)NCc2ccco2)cc1 (stereo not given) | Tyrosine-protein phosphatase non-receptor type 22 (Homo sapiens) | 8.1
CC(=O)NC1=NN(C(C)=O)C(C)(c2ccc(Cl)s2)S1 (stereo not given) | Tyrosine-protein phosphatase non-receptor type 22 (Homo sapiens) | 5.6
O=C(NN1C(=O)C2C3C=CC(C4CC34)C2C1=O)c1ccc(Cl)cc1 (stereo not given) | Tyrosine-protein phosphatase non-receptor type 22 (Homo sapiens) | 3.3
Cc1ccc(-n2c(=O)c(C#N)cc3c(=O)n4ccccc4nc32)cc1C | Tyrosine-protein phosphatase non-receptor type 22 (Homo sapiens) | 5.7
CN(C)c1ccc(NC(=S)N(CCc2ccccc2)C2CC(=O)N(c3c(Cl)cccc3Cl)C2=O)cc1 (stereo not given) | Tyrosine-protein phosphatase non-receptor type 22 (Homo sapiens) | -8.5
